System Under Test: T1, histidine-tagged human SORT1 (R&D Systems) (human, UniProt Q99523 78-755)
T1 construct: Bought recombinant protein; also called His-tagged human SORT1; not shown: histidine tag
T1 sequence: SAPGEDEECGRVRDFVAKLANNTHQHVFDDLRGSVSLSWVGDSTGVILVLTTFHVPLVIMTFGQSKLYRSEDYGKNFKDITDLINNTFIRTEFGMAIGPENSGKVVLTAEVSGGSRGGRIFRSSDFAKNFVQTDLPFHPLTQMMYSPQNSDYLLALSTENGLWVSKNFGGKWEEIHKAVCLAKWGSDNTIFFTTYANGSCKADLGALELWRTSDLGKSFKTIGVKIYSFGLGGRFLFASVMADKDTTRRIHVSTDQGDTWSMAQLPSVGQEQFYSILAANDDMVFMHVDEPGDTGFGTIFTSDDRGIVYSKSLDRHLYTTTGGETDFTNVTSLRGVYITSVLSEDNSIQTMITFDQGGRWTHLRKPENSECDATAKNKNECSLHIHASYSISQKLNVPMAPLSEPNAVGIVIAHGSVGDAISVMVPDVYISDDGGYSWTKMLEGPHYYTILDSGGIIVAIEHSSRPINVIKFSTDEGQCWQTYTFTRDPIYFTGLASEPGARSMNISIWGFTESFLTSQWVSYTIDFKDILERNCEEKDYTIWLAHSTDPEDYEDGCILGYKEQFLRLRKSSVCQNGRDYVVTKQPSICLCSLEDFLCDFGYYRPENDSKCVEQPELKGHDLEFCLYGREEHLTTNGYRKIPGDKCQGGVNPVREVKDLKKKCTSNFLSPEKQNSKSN
Test Details: BLI (Octet RED96), antibody captured on anti-human IgG Fc sensor, 20 nM His-tagged human SORT1, 1:1 fit
Exercise: state measured Kd for each of the binders provided.
Give bare numbers, in nM.

Please review the entries below; each comes with its answer.
Binder | Kd [nM]
S-60-15.7 [N33K] (antibody, human IgG1, kappa, L234A L235A, V domains shown, huIgG1 LALAPS) VH: QVQLQESGPGLVKPSETLSLTCAVSGYSISSGYYWGWIRQPPGKGLEWIGTIYHSGSTYYNPSLKSRVTISVDTSKNQFSLKLSSVTAADTAVYYCARQGSIKQGYYGMDVWGQGTTVTVSS VL: DIVMTQSPLSLPVTPGEPASISCRSSQSLLRSKGYNYLDWYLQKPGQSPQLLIYLGSNRASGVPDRFSGSGSGTDFTLKISRAEAEDVGVYYCMQQQEAPLTFGGGTKVEIKR | 0.965
S-60-15.13 [N33I] (antibody, human IgG1, kappa, L234A L235A, V domains shown, huIgG1 LALAPS) VH: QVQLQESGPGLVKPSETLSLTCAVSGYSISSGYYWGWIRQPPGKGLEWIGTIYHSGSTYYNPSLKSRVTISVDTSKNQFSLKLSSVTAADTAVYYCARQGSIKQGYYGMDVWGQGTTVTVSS VL: DIVMTQSPLSLPVTPGEPASISCRSSQSLLRSIGYNYLDWYLQKPGQSPQLLIYLGSNRASGVPDRFSGSGSGTDFTLKISRAEAEDVGVYYCMQQQEAPLTFGGGTKVEIKR | 0.46
S-60-15.8 [N33Q] (antibody, human IgG1, kappa, L234A L235A, V domains shown, huIgG1 LALAPS) VH: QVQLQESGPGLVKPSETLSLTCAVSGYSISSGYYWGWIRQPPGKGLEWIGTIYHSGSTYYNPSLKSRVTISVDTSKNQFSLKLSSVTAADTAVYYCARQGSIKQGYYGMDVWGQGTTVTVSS VL: DIVMTQSPLSLPVTPGEPASISCRSSQSLLRSQGYNYLDWYLQKPGQSPQLLIYLGSNRASGVPDRFSGSGSGTDFTLKISRAEAEDVGVYYCMQQQEAPLTFGGGTKVEIKR | 0.905

Now turn to the next binder.
Give the measured Kd for S-60-15.12 [N33F] (antibody, human IgG1, kappa, L234A L235A, V domains shown, huIgG1 LALAPS) VH: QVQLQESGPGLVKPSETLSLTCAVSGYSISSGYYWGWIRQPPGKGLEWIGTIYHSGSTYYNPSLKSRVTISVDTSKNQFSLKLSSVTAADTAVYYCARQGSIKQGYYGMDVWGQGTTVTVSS VL: DIVMTQSPLSLPVTPGEPASISCRSSQSLLRSFGYNYLDWYLQKPGQSPQLLIYLGSNRASGVPDRFSGSGSGTDFTLKISRAEAEDVGVYYCMQQQEAPLTFGGGTKVEIKR 2.91
